test system: LXFL 529 NSCLC; assay: NCI tumour cell line growth inhibition, 48 h
property: TGI

Here is how some compounds turned out for TGI.
>  <compound>
O=C(/C=N/O)Nc1ccc(Cl)c(I)c1

>  <property>
TGI

>  <value.measured>
42.1 µM

$$$$
>  <compound>
Cc1ccccc1NC(=O)C(=O)CC(=O)C1CCOC1=O (stereo not drawn)

>  <property>
TGI

>  <value.measured>
> 100 µM

$$$$
>  <compound>
CC(C)(C)c1cc(-c2c3nc(c(-c4cc(C(C)(C)C)cc(C(C)(C)C)c4)c4ccc([nH]4)c(-c4cc(C(C)(C)C)cc(C(C)(C)C)c4)c4nc(c(-c5cc(C(C)(C)C)cc(C(C)(C)C)c5)c5ccc2[nH]5)C=C4)C=C3)cc(C(C)(C)C)c1

>  <property>
TGI

>  <value.measured>
> 100 µM

$$$$
>  <compound>
CCP(C)(C)=O

>  <property>
TGI

>  <value.measured>
> 100 µM

$$$$
>  <compound>
COc1ccc(/C(=C\c2cc(OC)c(OC)c(OC)c2)C(=O)O)cc1

>  <property>
TGI

>  <value.measured>
> 100 µM

$$$$
>  <compound>
Cc1cccc(Cl)c1NC(=O)c1cccc([N+](=O)[O-])c1O

>  <property>
TGI

>  <value.measured>
> 100 µM

$$$$

Record CC(=O)C(N=NC1CCC(S(=O)(=O)NB2N=CS2)CC1)C(=O)Nc1ccccc1C (stereo not drawn) , field TGI: 27.6 µM

Record Cc1cccc(C)c1NC(=O)CCCC(=O)C(C#N)c1ccc(Cl)cc1 (stereo not drawn) , field TGI: > 100 µM

Record "CCOC(=O)N1CCc2cc(OC)c(OC)cc2/C1=C/c1ccc(OC)c(OC)c1" , field TGI: > 100 µM

Record "C=C[Si](C)(C)COC(=O)/C(C#N)=C/C=C/c1ccccc1" , field TGI: > 100 µM

Record NC1=NCC(c2ccccn2)C1c1ccc(F)cc1 (stereo not drawn) , field TGI: > 100 µM

Record "O=C1COc2cc3c(cc2N1)SCCC(=O)N3" , field TGI: > 100 µM

Record C=CCN(N=O)C(=O)N(CCCCC(NC(C)=O)C(=O)NCc1ccccc1)Cc1ccccc1 (stereo not drawn) , field TGI: > 100 µM

Record "Cc1cc(Cl)ccc1N1C(=O)C(=O)C(c2nc3ccccc3o2)C(=O)C1=O" , field TGI: > 100 µM

Record O=C(Nc1ccccc1[N+](=O)[O-])C(=O)C(C(=O)c1ccccc1-c1ccccc1)C1OC(=O)c2ccccc21 (stereo not drawn) , field TGI: 23 µM

Record CC1NCCc2c1[nH]c1cc(O)ccc21 (stereo not drawn) , field TGI: > 100 µM

Record NC(=S)N/N=C1\CC(c2ccccc2)Nc2ccccc21 (stereo not drawn) , field TGI: > 100 µM

Record "OCCSCC/C(=N\N=C(/CCSCCO)c1ccccc1)c1ccccc1" , field TGI: > 100 µM

---

tested on: MCF7 breast; experiment: NCI tumour cell line growth inhibition, 48 h
*1 amine or outer side, *2 acyl side, *3 side chain or, on linkers, in order; H or OH if unused. Where a SMILES comes first, the peptide text is derived from it. Bridges are numbered along the chain shown (N, C = ends). [ ]: non-standard residue; d: D form. X59 = COc1c(N[*:1])cccc1C(=O)O[C@H](C(=O)[C@H](C)C(=O)[*:2])C(C)C; X58 = CC(C)C[C@H](C(=O)[*:2])C(C)C(=O)C1CCCN1[*:1]; NMeY = CN[C@@H](Cc1ccc(O)cc1)C(=O)O; Lac = C[C@H](O)C(=O)O
property: TGI

Here is how some compounds turned out for TGI.
>  <compound>
CCOC(=O)C(C)c1nc2cc(C(F)(F)F)ccc2[nH]c1=O (stereo unspecified)

>  <TGI>
> 100 µM

$$$$
>  <compound>
COc1ccc(C2SCC(=O)N2NC(=O)C(O)c2ccccc2)cc1 (stereo unspecified)

>  <TGI>
> 100 µM

$$$$
>  <compound>
Cc1cccc2c(N=Nc3ccccc3[N+](=O)[O-])c(O)[nH]c12

>  <TGI>
24.3 µM

$$$$
>  <compound>
COc1ccc(C[C@H]2C(=O)O[C@H](C)[C@H](NC(=O)[C@@H](CC(C)C)C(C)C(=O)C3CCCN3C(=O)[C@H](C)O)C(=O)Nc3cccc(c3OC)C(=O)O[C@@H](C(C)C)C(=O)[C@H](C)C(=O)N[C@@H](CC(C)C)C(=O)N3CCC[C@H]3C(=O)N2C)cc1 (stereo partly specified) (H-[Lac][X58]T[X59]LP[NMeY](Me); ester 3-C)

>  <TGI>
> 12.5 µM

$$$$
>  <compound>
Cn1c(-c2cccs2)cc(-c2ccsc2)c1-c1cccs1

>  <TGI>
> 100 µM

$$$$
>  <compound>
Clc1ccc(-c2nc(C(Cl)Cl)nc3cc(-c4ccccc4)nn23)cc1

>  <TGI>
> 50 µM

$$$$
>  <compound>
COCCNC1CCC(=O)c2[nH]c3ccccc3c21 (stereo unspecified)

>  <TGI>
> 100 µM

$$$$
>  <compound>
CC(=O)c1c(C)cc2cccc(OC3OC(CO)C(O)C(O)C3O)c2c1O (stereo unspecified) (tested in a mixture with another compound)

>  <TGI>
> 100 µM

$$$$

Record O=C(CSc1nc2ccc(I)cc2c(=O)n1Cc1ccccc1)NN1C(=O)CSC1c1ccccc1 (stereo unspecified) , field TGI: 42.1 µM

Record CC1=NN(C(=O)CC(=O)Nc2ccc(Cl)cc2)C(=O)C1N=Nc1ccc(S(=O)(=O)c2ccc(N=NC3C(=O)N(C(=O)CC(=O)Nc4ccc(Cl)cc4)N=C3C)cc2)cc1 (stereo unspecified) , field TGI: > 100 µM

Record "O=C(/C=C/c1ccccc1Br)c1ccccc1" , field TGI: 2.27 µM

Taken from PubChem BioAssay (NCI).
